# Tested on: Saccharomyces cerevisiae
# assay notes: Antifungal against Saccharomyces cerevisiae after 24 hrs by two fold serial dilution method
# Format: functional
# MIC listing for each entry below
# output: bare number, implied unit µg/mL

CCCCn1c(C(=O)/C=C/c2ccc(C)cc2)nc2ccccc21 :: 4

What value of MIC has been recorded for this entry: CCCCCCCn1c(-c2cc(-c3ccc(Cl)cc3)nc(N)n2)nc2ccccc21 8

What value of MIC has been recorded for this entry: CCCCCCn1c(-c2cc(-c3ccc(Cl)cc3Cl)nc(N)n2)nc2ccccc21 512

What value of MIC has been recorded for this entry: CCCCCCCCn1c(-c2cc(-c3ccc(Cl)cc3Cl)nc(N)n2)nc2ccccc21 16

What value of MIC has been recorded for this entry: CCCCn1c(C(=O)/C=C/c2ccc(Cl)cc2Cl)nc2ccccc21 16

====

# System: Cyberlindnera jadinii
# assay notes: Antifungal against Candida utilis after 24 hrs by two fold serial dilution method
# Format: functional
# run conditions: Williopsis jadinii
# MIC listing for each entry below
# output: bare number, implied unit mg/L

Below, each entry is followed by its recorded MIC result.
CCCCCCn1c(-c2cc(-c3ccc(Cl)cc3)nc(N)n2)nc2ccccc21 :: 8
CCCCn1c(C(=O)/C=C/c2ccc(Cl)cc2)nc2ccccc21 :: 512
CCCCCCCn1c(-c2cc(-c3ccc(F)cc3)nc(N)n2)nc2ccccc21 :: 8
CCCCn1c(-c2cc(-c3ccc(Cl)cc3Cl)nc(N)n2)nc2ccccc21 :: 64

// switching to the query compound
What value of MIC has been recorded for this entry: Nc1nc(-c2ccc(Cl)cc2)cc(-c2nc3ccccc3[nH]2)n1 2

====

# System: Escherichia coli
# assay notes: Antibacterial activity against Escherichia coli DH52 after 24 hrs by micro broth dilution assay
# Assay type: functional
# run conditions: DH52, 24 h
value type: MIC (µg/mL)
# output: bare number, implied unit µg/mL

CCCCn1c(C(=O)/C=C/c2ccc(Cl)cc2)nc2ccccc21 :: 512
CCCCCCn1c(-c2cc(-c3ccc(F)cc3)nc(N)n2)nc2ccccc21 :: 512
CCCCCCCCn1c(-c2cc(-c3ccc(C)cc3)nc(N)n2)nc2ccccc21 :: 8
CCCCCCCn1c(-c2cc(-c3ccc(Cl)cc3)nc(N)n2)nc2ccccc21 :: 16
CCCCn1c(C(=O)/C=C/c2ccc(C)cc2)nc2ccccc21 :: 512
CCCCCCCCn1c(-c2cc(-c3ccc(Cl)cc3Cl)nc(N)n2)nc2ccccc21 :: 512

What value of MIC has been recorded for this entry: CCCCCCCn1c(C(=O)/C=C/c2ccc(Cl)cc2Cl)nc2ccccc21 512

What value of MIC has been recorded for this entry: CCCCn1c(-c2cc(-c3ccc(C)cc3)nc(N)n2)nc2ccccc21 32

What value of MIC has been recorded for this entry: Nc1nc(-c2nc3ccccc3[nH]2)cc(-c2ccc(Cl)cc2Cl)n1 16

====

# Test system: Saccharomyces cerevisiae
# assay notes: Antifungal against Saccharomyces cerevisiae after 24 hrs by two fold serial dilution method
# Format: functional
# MIC listing for each entry below
# output: bare number, implied unit µg/mL

Below, each entry is followed by its recorded MIC result.
CCCCn1c(-c2cc(-c3ccc(C)cc3)nc(N)n2)nc2ccccc21 :: 32
CCCCCCCn1c(C(=O)/C=C/c2ccc(Cl)cc2Cl)nc2ccccc21 :: 512
CCCCn1c(-c2cc(-c3ccc(F)cc3)nc(N)n2)nc2ccccc21 :: 32
CCCCCCn1c(C(=O)/C=C/c2ccc(Cl)cc2)nc2ccccc21 :: 8

What value of MIC has been recorded for this entry: Nc1nc(-c2ccc(Cl)cc2)cc(-c2nc3ccccc3[nH]2)n1 512

What value of MIC has been recorded for this entry: CCCCn1c(C(=O)/C=C/c2ccc(F)cc2)nc2ccccc21 512

What value of MIC has been recorded for this entry: CCCCCCn1c(-c2cc(-c3ccc(F)cc3)nc(N)n2)nc2ccccc21 512

What value of MIC has been recorded for this entry: CCCCCCCn1c(C(=O)/C=C/c2ccc(F)cc2)nc2ccccc21 512

What value of MIC has been recorded for this entry: CCCCCCCCn1c(C(=O)/C=C/c2ccc(C)cc2)nc2ccccc21 512

What value of MIC has been recorded for this entry: CCCCCCCCn1c(-c2cc(-c3ccc(C)cc3)nc(N)n2)nc2ccccc21 128

What value of MIC has been recorded for this entry: CCCCCCCn1c(C(=O)/C=C/c2ccc(Cl)cc2)nc2ccccc21 512

====

# Tested on: Saccharomyces cerevisiae
# assay notes: Antifungal against Saccharomyces cerevisiae after 24 hrs by two fold serial dilution method
# Format: functional
value type: MIC (µg/mL)
# output: bare number, implied unit µg/mL

CCCCCCCn1c(-c2cc(-c3ccc(F)cc3)nc(N)n2)nc2ccccc21 :: 16
Cc1ccc(/C=C/C(=O)c2nc3ccccc3[nH]2)cc1 :: 8
OC(Cn1cncn1)(Cn1cncn1)c1ccc(F)cc1F :: 8
CCCCCCCCn1c(C(=O)/C=C/c2ccc(Cl)cc2)nc2ccccc21 :: 4
CCCCCCCn1c(-c2cc(-c3ccc(Cl)cc3Cl)nc(N)n2)nc2ccccc21 :: 128

What value of MIC has been recorded for this entry: CCCCCCCn1c(-c2cc(-c3ccc(C)cc3)nc(N)n2)nc2ccccc21 4

What value of MIC has been recorded for this entry: CCCCCCn1c(-c2cc(-c3ccc(C)cc3)nc(N)n2)nc2ccccc21 16

What value of MIC has been recorded for this entry: CCCCCCn1c(C(=O)/C=C/c2ccc(C)cc2)nc2ccccc21 512

====

# Tested on: Pseudomonas aeruginosa
# assay notes: Antibacterial activity against Pseudomonas aeruginosa incubated for 24 hrs followed by plating onto tryptic soy agar medium and measured after 24 hrs
# Assay type: functional
# MBC listing for each entry below
# output: bare number, implied unit µg/mL

Below, each entry is followed by its recorded MBC result.
Nc1nc(-c2nc3ccccc3[nH]2)cc(-c2ccc(Cl)cc2Cl)n1 :: 64
Nc1nc(-c2ccc(Cl)cc2)cc(-c2nc3ccccc3[nH]2)n1 :: 512
Nc1nc(-c2ccc(F)cc2)cc(-c2nc3ccccc3[nH]2)n1 :: 16

What value of MBC has been recorded for this entry: CCCCCCCn1c(-c2cc(-c3ccc(Cl)cc3Cl)nc(N)n2)nc2ccccc21 128

====

# System: Pseudomonas aeruginosa
# assay notes: Antibacterial activity against Pseudomonas aeruginosa after 24 hrs by micro broth dilution assay
# Format: functional
value type: MIC (µg/mL)
# output: bare number, implied unit µg/mL

Cc1ccc(/C=C/C(=O)c2nc3ccccc3[nH]2)cc1 :: 4
Nc1nc(-c2ccc(Cl)cc2)cc(-c2nc3ccccc3[nH]2)n1 :: 128
CCCCCCCn1c(C(=O)/C=C/c2ccc(C)cc2)nc2ccccc21 :: 512
CCCCn1c(C(=O)/C=C/c2ccc(Cl)cc2Cl)nc2ccccc21 :: 512
CCCCCCCCn1c(-c2cc(-c3ccc(Cl)cc3Cl)nc(N)n2)nc2ccccc21 :: 512

What value of MIC has been recorded for this entry: O=C(/C=C/c1ccc(Cl)cc1Cl)c1nc2ccccc2[nH]1 512

What value of MIC has been recorded for this entry: CCCCCCCCn1c(C(=O)/C=C/c2ccc(Cl)cc2Cl)nc2ccccc21 512

What value of MIC has been recorded for this entry: CCCCCCCCn1c(-c2cc(-c3ccc(F)cc3)nc(N)n2)nc2ccccc21 512

What value of MIC has been recorded for this entry: CCCCCCCn1c(-c2cc(-c3ccc(C)cc3)nc(N)n2)nc2ccccc21 4

What value of MIC has been recorded for this entry: O=C(/C=C/c1ccc(Cl)cc1)c1nc2ccccc2[nH]1 512

What value of MIC has been recorded for this entry: CCCCn1c(-c2cc(-c3ccc(F)cc3)nc(N)n2)nc2ccccc21 512

====

# Tested on: Escherichia coli
# assay notes: Antibacterial activity against Escherichia coli DH52 after 24 hrs by micro broth dilution assay
# Format: functional
# run conditions: DH52, 24 h
Entries whose MIC is below 30 µg/mL take Met; entries at or above 30 µg/mL take Not met.

CCCCCCn1c(-c2cc(-c3ccc(C)cc3)nc(N)n2)nc2ccccc21 :: Not met
CCCCCCCn1c(C(=O)/C=C/c2ccc(F)cc2)nc2ccccc21 :: Not met
CCCCCCCCn1c(-c2cc(-c3ccc(F)cc3)nc(N)n2)nc2ccccc21 :: Not met
O=C(/C=C/c1ccc(F)cc1)c1nc2ccccc2[nH]1 :: Not met
CCCCn1c(-c2cc(-c3ccc(F)cc3)nc(N)n2)nc2ccccc21 :: Met

Please determine if Cc1ccc(/C=C/C(=O)c2nc3ccccc3[nH]2)cc1 is below 30 µg/mL in terms of MIC. Met

Please determine if CCCCCCn1c(C(=O)/C=C/c2ccc(Cl)cc2)nc2ccccc21 is below 30 µg/mL in terms of MIC. Met

Please determine if CCCCn1c(-c2cc(-c3ccc(Cl)cc3Cl)nc(N)n2)nc2ccccc21 is below 30 µg/mL in terms of MIC. Not met

Please determine if CCCCCCCn1c(-c2cc(-c3ccc(C)cc3)nc(N)n2)nc2ccccc21 is below 30 µg/mL in terms of MIC. Met

Please determine if CCCCCCCCn1c(C(=O)/C=C/c2ccc(F)cc2)nc2ccccc21 is below 30 µg/mL in terms of MIC. Met

Please determine if CCCCCCn1c(C(=O)/C=C/c2ccc(F)cc2)nc2ccccc21 is below 30 µg/mL in terms of MIC. Not met

Where do these numbers come from? They come from ChEMBL document CHEMBL4251572.
